# assay-system: Mnk1 (Homo sapiens)
# Construct: incubated with recombinant full length Mnk1 proteins or cell lysates overnight at 4 °C; GST
# Sequence (Q9BUB5 whole entry): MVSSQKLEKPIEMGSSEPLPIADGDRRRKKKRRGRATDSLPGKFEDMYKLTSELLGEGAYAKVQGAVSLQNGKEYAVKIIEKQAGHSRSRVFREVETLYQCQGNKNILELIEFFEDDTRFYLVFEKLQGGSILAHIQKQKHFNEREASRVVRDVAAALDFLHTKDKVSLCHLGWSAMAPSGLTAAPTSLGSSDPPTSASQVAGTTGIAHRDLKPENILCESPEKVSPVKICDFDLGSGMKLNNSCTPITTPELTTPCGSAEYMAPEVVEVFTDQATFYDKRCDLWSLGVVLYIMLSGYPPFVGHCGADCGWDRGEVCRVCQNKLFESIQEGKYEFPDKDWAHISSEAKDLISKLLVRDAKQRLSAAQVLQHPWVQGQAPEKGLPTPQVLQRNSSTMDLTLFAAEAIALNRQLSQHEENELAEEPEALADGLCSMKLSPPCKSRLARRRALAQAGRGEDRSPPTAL
# experimental-details: Surface plasmon resonance (OpenSPR) binding to immobilized GST-Mnk1
# run-conditions: SPR, 1.25, 10 and 30 µM, 1:1 Langmuir model, 30 °C, scouting analysis; read-out: dissociation constant (KD)
measurement-name: pKd
API: returns pKd as number; meaning -log10 of concentration in mol/L.

Query: Report the value of pKd obtained on Mnk1 (Homo sapiens) for CC1=C(/C=C/C(C)=C/C=C/C(C)=C/C(=O)Nc2ccc(F)cc2)C(C)(C)CCC1n1ccnc1 (racemic) [VNLG-152R] .
Result: 5.19
